# ASSAY SYSTEM: BTK (Homo sapiens, UniProt Q06187)
# Construct: purchased Signalchem B10-10H
# Sequence (Q06187 whole entry): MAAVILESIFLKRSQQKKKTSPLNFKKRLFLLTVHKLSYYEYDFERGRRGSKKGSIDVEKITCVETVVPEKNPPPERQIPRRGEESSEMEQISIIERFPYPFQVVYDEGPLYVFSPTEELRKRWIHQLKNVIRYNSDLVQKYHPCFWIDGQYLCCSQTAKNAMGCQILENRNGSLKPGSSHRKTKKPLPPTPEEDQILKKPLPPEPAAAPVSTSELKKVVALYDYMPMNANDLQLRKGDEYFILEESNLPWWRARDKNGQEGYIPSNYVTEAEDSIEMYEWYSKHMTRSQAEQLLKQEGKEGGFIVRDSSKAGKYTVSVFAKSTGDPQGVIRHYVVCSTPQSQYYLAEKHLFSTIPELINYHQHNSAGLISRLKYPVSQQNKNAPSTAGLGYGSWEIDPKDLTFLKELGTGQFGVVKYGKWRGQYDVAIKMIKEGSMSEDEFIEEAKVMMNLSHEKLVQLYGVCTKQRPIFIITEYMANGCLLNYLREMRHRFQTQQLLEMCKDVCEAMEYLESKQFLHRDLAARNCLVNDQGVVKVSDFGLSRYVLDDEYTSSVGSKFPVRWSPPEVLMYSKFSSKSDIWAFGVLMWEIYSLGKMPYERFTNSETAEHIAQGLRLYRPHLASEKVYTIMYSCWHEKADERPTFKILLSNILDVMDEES
# PROCEDURE SUMMARY: Inhibitory activity against BTK, ADP-Glo Kinase system (Promega)
# Type: biochemical
# RECORDED CONDITIONS: 1mM ATP; read-out: BTK IC50(nM) 1mM ATP
Quick reference for IC50 among some compounds

{"COMPOUND": "C=CC(=O)N1CC[C@@H]1COc1nc(Nc2ncc(C)s2)cc2c1ccn2C1CCCC1", "IC50": "≤ 20 nM"}
{"COMPOUND": "C=CC(=O)N1CC[C@@H](Oc2nc(Nc3ncc(C)s3)cc3c2ccn3C)C1", "IC50": "> 500 nM"}
{"COMPOUND": "C=CC(=O)Nc1cccc(-c2nc(Nc3ncc(C)s3)cc3c2ccn3CC(C)C)c1C", "IC50": "≤ 20 nM"}

# ---- query compound ----
For the compound shown here, C=CC(=O)N1CC=C(c2nc(Nc3ncc(C)s3)cc3c2ccn3CC2CC2)CC1 , give the reported IC50.
20 to 100 nM

====

# ASSAY SYSTEM: BTK (Homo sapiens)
# Construct: purchased Signalchem B10-10H
# PROCEDURE SUMMARY: Inhibitory activity against BTK, ADP-Glo Kinase system (Promega)
# Format: biochemical
# RECORDED CONDITIONS: 1mM ATP; read-out: BTK IC50(nM) 1mM ATP
REPORTED PROPERTY: IC50

{"COMPOUND": "C=CC(=O)N1C2C=C(c3nc(Nc4ncc(C)s4)cc4c3ccn4C3CCCC3)CC1CC2 (stereo not shown) [Example 33]", "REPORTED PROPERTY": "IC50", "EXPERIMENTAL RESULT": "≤ 20 nM"}
{"COMPOUND": "C=CC(=O)N1C[C@H](F)[C@H](Oc2nc(Nc3ncc(C)s3)cc3c2ccn3CCOC)C1 [Example 147]", "REPORTED PROPERTY": "IC50", "EXPERIMENTAL RESULT": "≤ 20 nM"}
{"COMPOUND": "C=CC(=O)N1C[C@@H](Oc2nc(Nc3ncc(C)s3)cc3c2ccn3CC2CC2)C[C@H]1C [Example 98]", "REPORTED PROPERTY": "IC50", "EXPERIMENTAL RESULT": "≤ 20 nM"}
{"COMPOUND": "C=CC(=O)N1CC[C@H](Oc2nc(Nc3ncc(C)s3)cc3c2ccn3CC2CCCC2)C1 [Example 128]", "REPORTED PROPERTY": "IC50", "EXPERIMENTAL RESULT": "≤ 20 nM"}
{"COMPOUND": "C=CC(=O)N1CCCC1COc1nc(Nc2ncc(C)s2)cc2c1ccn2C1CCCC1 (stereo not shown) [Example 217]", "REPORTED PROPERTY": "IC50", "EXPERIMENTAL RESULT": "≤ 20 nM"}

For the compound shown here, C=CC(=O)N1C[C@@H](F)[C@H](Oc2nc(Nc3ncc(C)s3)cc3c2ccn3CCC)C1 [Example 161] , give the reported IC50.
≤ 20 nM

For the compound shown here, C=CC(=O)N1CC[C@H](Oc2nc(Nc3cc(C)[nH]n3)cc3c2ccn3C(C)C)C1 [Example 194] , give the reported IC50.
≤ 20 nM

For the compound shown here, C=C(F)C(=O)N1CC[C@H](Oc2nc(Nc3ncc(C)s3)cc3c2ccn3CC(C)C)C1 [Example 224] , give the reported IC50.
> 500 nM

For the compound shown here, C=CC(=O)N1CC[C@@H]1COc1nc(Nc2ncc(C)s2)cc2c1ccn2CC(F)(F)F [Example 208] , give the reported IC50.
≤ 20 nM

For the compound shown here, C=CC(=O)N1CCC12CC(Oc1nc(Nc3ncc(C)s3)cc3c1ccn3CC(C)C)C2 (stereo not shown) [Example 137] , give the reported IC50.
≤ 20 nM

For the compound shown here, C=CC(=O)Nc1ccc(F)c(-c2nc(Nc3ncc(C)s3)cc3c2ccn3CC(F)(F)F)c1 [Example 78] , give the reported IC50.
≤ 20 nM

For the compound shown here, C=CC(=O)N1CC(C)(Oc2nc(Nc3ncc(C)s3)cc3c2ccn3C(C)C)C1 [Example 163] , give the reported IC50.
≤ 20 nM

For the compound shown here, C=CC(=O)N1CC[C@H](Oc2nc(Nc3cc(C)ncn3)cc3c2ccn3CC(C)C)C1 [Example 104] , give the reported IC50.
20 to 100 nM

For the compound shown here, C=CC(=O)N1C[C@H](F)[C@H](Oc2nc(Nc3ncc(C)s3)cc3c2ccn3CCCF)C1 [Example 191] , give the reported IC50.
≤ 20 nM

For the compound shown here, C=CC(=O)N1CC[C@@H](Oc2nc(Nc3ncc(C)s3)cc3c2ccn3CC2CC2)C1 [Example 144] , give the reported IC50.
> 500 nM

For the compound shown here, C=CC(=O)N1C[C@@H](F)[C@H](Oc2nc(Nc3ncc(C)s3)cc3c2ccn3C[C@@H](C)CC)C1 [Example 175] , give the reported IC50.
≤ 20 nM

====

Quick reference for IC50 among some molecules
# ASSAY SYSTEM: BTK (Homo sapiens, UniProt Q06187)
# Construct: purchased Signalchem B10-10H
# PROCEDURE SUMMARY: Inhibitory activity against BTK, ADP-Glo Kinase system (Promega)
# Format: biochemical
# RECORDED CONDITIONS: 1mM ATP; read-out: BTK IC50(nM) 1mM ATP

Look over these answered cases.
{"MOLECULE": "C=CC(=O)N1CCC[C@H]1COc1nc(Nc2ncc(C)s2)cc2c1ccn2C1CCCC1", "IC50": "≤ 20 nM"}
{"MOLECULE": "C=CC(=O)N1C[C@@H](F)[C@H](Oc2nc(Nc3ncc(C)s3)cc3c2ccn3C2CCCC2)C1", "IC50": "≤ 20 nM"}
{"MOLECULE": "C=CC(=O)N1CCC[C@H](Oc2nc(Nc3ncc(C)s3)cc3c2ccn3CC)C1", "IC50": "≤ 20 nM"}

For the molecule shown here, C=CC(=O)N1CC[C@@H]1COc1nc(Nc2ncc(C)s2)cc2c1ccn2C(C)C , give the reported IC50.
≤ 20 nM

====

# ASSAY SYSTEM: BTK (Homo sapiens)
# Construct: purchased Signalchem B10-10H
# PROCEDURE SUMMARY: Inhibitory activity against BTK, ADP-Glo Kinase system (Promega)
# Format: biochemical
# RECORDED CONDITIONS: 1mM ATP; read-out: BTK IC50(nM) 1mM ATP
Quick reference for IC50 among some molecules

{"MOLECULE": "C=CC(=O)N1CC[C@@H](Oc2nc(Nc3ncc(C)s3)cc3c2ccn3CC(C)C)C1 (stereo in doubt) [Example 82]", "REPORTED PROPERTY": "IC50", "EXPERIMENTAL RESULT": "> 500 nM"}

For the molecule shown here, C=CC(=O)N1C[C@H](F)[C@H](Oc2nc(Nc3ncc(C)s3)cc3c2ccn3CC(C)C)C1 [Example 105] , give the reported IC50.
≤ 20 nM

For the molecule shown here, C=CC(=O)N1CC[C@H](Oc2nc(Nc3cccn(C)c3=O)cc3c2ccn3C(C)C)C1 [Example 198] , give the reported IC50.
> 500 nM

For the molecule shown here, C=CC(=O)N1C[C@@H](F)[C@H](Oc2nc(Nc3ncc(C)s3)cc3c2ccn3[C@@H](C)CC)C1 [Example 113] , give the reported IC50.
≤ 20 nM

For the molecule shown here, C=CC(=O)N1CC[C@H](Oc2nc(Nc3ncc(C)s3)cc3c2ccn3CC2CCOCC2)C1 [Example 133] , give the reported IC50.
≤ 20 nM

For the molecule shown here, C=CC(=O)Nc1cc(-c2nc(Nc3ncc(C)s3)cc3c2ccn3CC(C)C)c(F)cc1F [Example 67] , give the reported IC50.
≤ 20 nM

For the molecule shown here, C=CC(=O)N1C[C@H](F)[C@H](Oc2nc(Nc3ncc(C)s3)cc3c2ccn3CCC)C1 [Example 159] , give the reported IC50.
≤ 20 nM

For the molecule shown here, C=CC(=O)N1CCC[C@H](Oc2nc(Nc3ncc(C)s3)cc3c2ccn3CCC)C1 [Example 160] , give the reported IC50.
100 to 500 nM

For the molecule shown here, C=CC(=O)N1C[C@H](F)[C@H](Oc2nc(Nc3ncc(C)s3)cc3c2ccn3CC(C)CC)C1 (stereo partly shown) [Example 171] , give the reported IC50.
≤ 20 nM

For the molecule shown here, C=CC(=O)N1CC=C(c2nc(Nc3cc(C)ncn3)cc3c2ccn3C(C)C)CC1 [Example 44] , give the reported IC50.
20 to 100 nM

For the molecule shown here, C=CC(=O)N1CC=C(c2nc(Nc3ncc(C)s3)cc3c2ccn3[C@H](C)C(F)(F)F)CC1 [Example 24] , give the reported IC50.
≤ 20 nM

For the molecule shown here, C=CC(=O)N1CC[C@H](Oc2nc(Nc3ncc(C)s3)cc3c2ccn3CC2(C(F)(F)F)CC2)C1 (stereo in doubt) [Example 102] , give the reported IC50.
≤ 20 nM

For the molecule shown here, C=CC(=O)N1C[C@@H](Oc2nc(Nc3ncc(C)s3)cc3c2ccn3CC(C)C)C[C@@H]1C [Example 179] , give the reported IC50.
≤ 20 nM

For the molecule shown here, C=CC(=O)N1CC[C@H](Oc2nc(Nc3ncc(C)s3)cc3c2ccn3CC(F)F)C1 [Example 206] , give the reported IC50.
≤ 20 nM

For the molecule shown here, C=CC(=O)N1CCCC12CCC(Oc1nc(Nc3ncc(C)s3)cc3c1ccn3CC(C)C)C2 (stereo not shown) [Example 201] , give the reported IC50.
100 to 500 nM

For the molecule shown here, C=CC(=O)N1C[C@@H](Oc2nc(Nc3ncc(C)s3)cc3c2ccn3C)C[C@@H]1C [Example 185] , give the reported IC50.
≤ 20 nM

Reference source: patent EP4707277A1
